# TESTED_SYSTEM: FAD-linked sulfhydryl oxidase ALR (Homo sapiens) (UniProt P55789)
# Sequence (P55789 whole entry, looked up): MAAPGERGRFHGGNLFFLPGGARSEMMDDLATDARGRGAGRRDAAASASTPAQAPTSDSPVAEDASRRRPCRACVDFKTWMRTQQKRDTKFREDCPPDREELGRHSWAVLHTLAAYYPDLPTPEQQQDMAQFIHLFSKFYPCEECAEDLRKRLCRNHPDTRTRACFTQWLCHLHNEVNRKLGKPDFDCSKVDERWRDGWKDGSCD
# TEST_NAME: ALR-catalysed DTT oxidation blockers – biochemical, H2O2 detection, HRP-luminol luminescence, single point, primary screen (AID 485317)
# APPLIED_CONDITIONS: purified ALR, stronger effect = higher value, concentration not given here
Hit rate of the full screen: of about 290,000 compounds, about 11,000 (3.8%) were called active. Shown is part of a subset that was picked to be rich in actives.
ASSAY_READOUT: inhibition (%)
State the answer as a number, implicitly in %.

Example cases with answers are listed next.
LINE_NOTATION | REPORTED
CC(=O)N1CCCc2cc(S(=O)(=O)CCC(=O)N3CCN(c4ccccc4)CC3)ccc21 | 61.3
COc1ccc(C(=O)N2CCN(c3ncccn3)CC2)cc1S(=O)(=O)N1CCOCC1 | -2.44
COc1ccccc1C(=O)NCC(=O)NCCSc1ccc(Br)cc1 | -5.14

Recorded inhibition for `O=C(N/N=C/c1ccc2c(c1)OCO2)c1ccc(Cn2cc([N+](=O)[O-])cn2)o1` , please?
29.3

Source of measurements: PubChem BioAssay AID485317
